# Test system: KM12 colon
# run description: NCI-60 one-dose screen, 48 h
# study conditions: 10 µM
Compounds without any hit were thinned out: in the full panel of roughly 83,000, 20% have a hit. Calls of active or inactive are those of the source. How the source made its calls: active means growth percent below 10; inactive means the rest.
Form entry, call: pick from 1.0 = active, 0.0 = inactive

N#Cc1c(-c2ccccc2)nc(SCC(=O)N2CCOCC2)[nH]c1=O :: 0.0
O=C(O)CNS(=O)(=O)c1ccc(OCCOc2ccc(S(=O)(=O)NCC(=O)O)cc2)cc1 :: 0.0
CCCCCCCCCCSC(=N)N (tested in a mixture with another compound) :: 0.0

What was the test verdict on COc1ccc(C2=NNC(c3sc(Cl)nc3Cl)C2)cc1 (stereo not given) ?
0.0

What outcome does the record of this test show for "COc1ccc(/C(CS(=O)(=O)c2ccccc2)=N\O)cc1" ?
0.0

Name the outcome recorded for "CC(=O)OCC(COC(C)=O)(COC(C)=O)COC(C)=O" in the assay.
0.0

Please indicate how the test categorized N/C(=N\O)c1cn(C2OC(CO)C(O)C2O)c2ncnc(N)c12 (stereo not given) .
1.0

Recorded test outcome, item "COc1cc(OC)cc(N2CCN(C(=O)Nc3nc4cc(F)ccc4nc3OC)CC2)c1"
0.0

Record lookup: outcome of this test for CN(C)c1ccc2c(c1)OC(N)=C(C#N)C2c1ccc2c(c1)CCO2 (stereo not given) ?
0.0

What outcome does the record of this test show for "Cc1nc2ccc(-n3c(-c4ccc(Cl)cc4)nc4ccccc4c3=O)cc2n1Cc1ccccc1" ?
0.0

---

Quick list: growth per entry.
# System: NCI-H23 lung
# run description: NCI-60 one-dose screen, 48 h (100 = growth as untreated, 0 = no growth, -100 = all killed)
# study conditions: 10 µM
The panel holds about 83,000 compounds, 20% with a hit somewhere; the sample as a whole holds those more often.
Give the value in % but do not write % after it.

Assign growth to the following record: "N=C(N)c1ccc(-c2ccc(-c3ccccc3)s2)s1"
54.6

For the compound "COc1ccc(-c2[nH]ncc2-c2cc(OC)c(OC)c(OC)c2)cc1" , give its measured growth value.
24.9

Specify growth for "C/C(=N\NC(=S)N1CCCC1)c1ccccn1" and stop.
17

Tell us which growth value is on record for "Cc1nc2scc(-c3ccc(Cl)cc3)n2c(=O)c1CCN1CCOCC1"
101

Supply growth value. Item: "Cn1c([N+](=O)[O-])cnc1/C=C1\Oc2ccc(Br)cc2C1=O"
-9.69

Please indicate growth recorded for O=[N+]([O-])C1CC2C=CC1C2 (configuration not stated)
100

Identify measured growth corresponding to "O=S(=O)(NC1c2ccccc2Oc2ccccc21)c1cc(Cl)ccc1Cl"
97.6

Provide only the value of recorded growth for "FC(F)(F)c1ccc(-c2ncc(-c3ccc(C(F)(F)F)cc3)c(NCc3cc(C(F)(F)F)cc(C(F)(F)F)c3)n2)cc1"
39.3

Consider the compound "C#Cc1ccc(-n2c(/C=C/c3cc(OC)c(OC)c(OC)c3)nc3ncccc3c2=O)cc1" . State its measured growth.
73.6

Please look at this compound and report its growth: COc1ccc(/C=C2\CCC3C(CCCC34OCCO4)C2=O)cc1 (configuration not stated)
94.2

Please give the documented growth of "O=S(=O)(NCCO)c1ccc(OCCOc2ccc(S(=O)(=O)NCCO)cc2)cc1"
96.6

Answer with reported growth of "CC(C)c1ncc(CO)n1Cc1c(Cl)cccc1Cl"
110

Provide growth value for the following compound: "C[N+]1=C(/C=C/c2ccc(I)cc2)C(C)(C)c2ccccc21"
82

Answer with reported growth of "CC(C)(C)c1ccc(OCCCCCCN2CCNCC2)cc1"
61.5

Return growth for the following compound: COc1ccc(-c2nsc3c2NC(=O)CC3c2cccc(Cl)c2)cc1 (configuration not stated)
46.9

---

# Tested on: NCI-H23 lung
# run description: NCI-60 one-dose screen, 48 h (100 = growth as untreated, 0 = no growth, -100 = all killed)
# study conditions: 10 µM
The panel holds about 83,000 compounds, 20% with a hit somewhere; the sample as a whole holds those more often.
endpoint label: growth (%)
# output: bare number, implied unit %

COc1cccc2c1C(=O)c1c(O)c3c(c(O)c1C2=O)C[C@@](O)(C(=O)COC(=O)c1cccnc1)C[C@@H]3OC1CC(N)C(O)C(C)O1 (stereo partly specified) :: -24.7

Please indicate growth recorded for "Fc1ccc(Nc2ccnc(N3CCN(c4ccnc5cc(Cl)ccc45)CC3)n2)cc1"
44.5

Return value of growth for input "Cc1nc(N)sc1Sc1nc2ccc(Cl)cc2c(=O)n1-c1ccc(Oc2ccccc2)cc1" , no commentary.
74

Look up and report measured growth for this entry: "O=[N+]([O-])c1ccc2c(c1)Cc1cc(I)ccc1-2"
99.4

Return growth for the following molecule: CCCCN(CCCC)c1ccc(C(=NC(C)CCCN(CC)CC)c2ccc(N(C)C)cc2)cc1 (stereo unspecified)
-60.3

Return the recorded growth value; entry: "COc1ccc(-c2nnc(SC/C(=N\O)c3ccccc3)o2)cc1"
89.3

Query growth for COc1cc(C2c3cc4c(cc3C(O)C(CO)C2CO)OCO4)cc(OC)c1OC (stereo unspecified)
43.2

Identify growth associated with the molecule "C#C[C@]1(O)CC[C@H]2[C@@H]3CC[C@H]4CC(F)(F)CC[C@]4(C)[C@H]3CC[C@@]21C"
95.5

Return reported growth. Input molecule: "Cc1ccc2nc(-c3ccc(OCC(=O)N=Nc4c(O)[nH]c5ccccc45)cc3)[nH]c2c1"
94.9

Kindly indicate its recorded growth. Item: "Cn1c([N+](=O)[O-])cnc1C=C1C(=O)c2ccccc2C1=O"
53.7

Read the entry "COc1cc(/C=C2\C(=O)Nc3cc(C)c(O)cc32)cc(OC)c1OC" and write its reported growth.
65.2

Return value of growth for input "CCOC(=O)c1cc2c(n1Cc1cccc(OC)c1)-c1oncc1CC2" , no commentary.
48.9

Please report growth for the following molecule: "O=C1CC(c2cccc(-c3cccnc3)c2)=Nc2ccc(Br)cc2N1"
44.4

Provide only the value of recorded growth for "COc1ccc(-c2csc(-c3cc(Cl)cc(Cl)c3Cl)n2)cc1"
91.4

Please give the documented growth of "COc1ccc(COC(=O)CC(C)C)cc1"
93.1

Find the measured growth of "COCCOC(=O)NC(=O)Nc1ccc(/C(=N/O)c2ccc(Cl)cc2)cc1" and report it.
29.2

Using known records, supply growth for "Cc1ccc(S(=O)(=O)Oc2ccccc2-c2ccccc2)cc1"
47.2

---

# growth per record follows
# Tested on: NCI/ADR-RES ovarian
# run description: NCI-60 one-dose screen, 48 h (100 = growth as untreated, 0 = no growth, -100 = all killed)
# study conditions: 10 µM
About 83,000 compounds went through this panel and 20% of them were active in at least one assay; those are over-represented in the sample as a whole. Active and inactive are the calls of the source. How the source made its calls: active means growth percent below 10; inactive means the rest.

CCCCCCCCCCSC(=N)N (tested in a mixture with another compound) :: 82.5% (inactive)
CCCCCCCCCCCCCC[n+]1ccccc1 :: 73.3% (inactive)
COc1cc(-c2nc(-c3nnc(-c4cccnc4)o3)c3ccccn23)cc(OC)c1OC :: 82.2% (inactive)
O=C(CSc1nnc(-c2ccc(Cl)cc2)o1)c1ccccc1 :: 94.9% (inactive)
O=[N+]([O-])c1cc2ncccc2c2ncccc12 :: 75.1% (inactive)
CC1(C)CCc2cc(-c3ccn(S(=O)(=O)c4ccc(Cl)cc4)n3)ccc2O1 :: 69.3% (inactive)

Provide measured growth value, entry: CCCC(C)c1ccc(OCCCCCCN2CCNCC2)cc1 (stereo unspecified)
54.3% (inactive)

Please report the measured growth for "CCCCCCCCCCN=C(c1ccc(N(C)C)cc1)c1ccc(N(C)C)cc1"
-3.13% (active)

State, in one line, measured growth of Cc1ccc(C2C=C(c3ccc(Cl)cc3)N=C3SC=CN32)c(Br)c1 (stereo unspecified)
85.6% (inactive)

Return growth (reported value) for this molecule: "COc1cc(-c2n/c(=C\c3c(O)[nH]c4ccccc34)cc3c2=Nc2ccccc2-3)cc(OC)c1OC"
4.78% (active)

Given "CCCc1ccnc(NS(=O)(=O)c2ccc(N)cc2)n1" , respond with its growth.
112% (inactive)

---

# System: HCT-116 colon
# run description: NCI-60 one-dose screen, 48 h
# study conditions: 10 µM
The panel holds about 83,000 compounds, 20% with a hit somewhere; the sample as a whole holds those more often. The source made the active and inactive calls. Rule for the calls: active = growth percent below 10; inactive = the rest.
Write down one outcome, taken from True = active, False = inactive

Please review the entries below; each comes with its answer.
O=C(Nc1cccc(Cl)c1)OCC(COC(=O)Nc1cccc(Cl)c1)(COC(=O)Nc1cccc(Cl)c1)[N+](=O)[O-] :: False
COc1cc(C(c2c[nH]c3ccccc23)N2CCCC2)ccc1OCc1ccccc1 (configuration not stated) :: False
CCCCN(CCCC)c1ccc(C(=NC(C)CCCN(CC)CC)c2ccc(N(C)C)cc2)cc1 (configuration not stated) :: True
O=CNc1c(Cl)cc2c(c1Cl)Cc1cc([N+](=O)[O-])ccc1-2 :: True
COc1ccc(C2C=C(c3ccc(OC)c(OC)c3)N=C3SC=CN32)c(Br)c1 (configuration not stated) :: True
CCC(OC(=O)CC(C)C)c1ccccc1 (configuration not stated) :: False

Dear colleague, could you share the recorded outcome for "O=C(c1ccc(Cl)cc1)c1no[n+]([O-])c1C(=O)c1ccc(Cl)cc1" when you have a moment?
False

Test call for this compound, please: "COc1cc(Cn2c(-c3ccccc3)c(Cl)c3c2-c2oncc2CC3)cc(OC)c1"
False

What classification did "N#C/C(=C/c1cc([N+](=O)[O-])ccc1Cl)C(N)=O" end up with in this test?
True

# fetch the recorded call for "Cc1cnc(C=O)c2cccc([N+](=O)[O-])c12" here
False

Which outcome did this test record for the compound "Cc1nc2ccc(-n3c(-c4ccc(Cl)cc4)nc4ccccc4c3=O)cc2n1Cc1ccccc1" ?
False

GET /call?item= "COc1ccc(N2CCN(c3nc(-c4ccccc4)c(C#N)c(=O)[nH]3)CC2)cc1" returns the recorded outcome of this test.
False
